I'd be grateful if you could share measured Hek-CXCR7 [MCF] for these entries.
# experimental_target: T1, Human CXCR7 (human, UniProt P25106 1-362)
# T1 construct: see assay field; also called hCXCR7
# T1 sequence (P25106 whole entry): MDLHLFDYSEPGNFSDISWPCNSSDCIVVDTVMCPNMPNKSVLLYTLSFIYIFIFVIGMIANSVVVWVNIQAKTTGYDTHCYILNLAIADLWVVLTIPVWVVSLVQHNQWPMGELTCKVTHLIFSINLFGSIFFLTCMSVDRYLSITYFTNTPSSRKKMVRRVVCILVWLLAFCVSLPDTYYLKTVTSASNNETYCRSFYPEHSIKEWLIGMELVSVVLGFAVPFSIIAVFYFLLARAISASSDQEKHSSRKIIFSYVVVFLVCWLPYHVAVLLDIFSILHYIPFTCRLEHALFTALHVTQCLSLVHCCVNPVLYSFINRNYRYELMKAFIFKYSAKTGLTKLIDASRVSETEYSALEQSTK
# method_notes: FACS, periplasmic extract on Hek293 hCXCR7 cells
# Experimental: Clones representing distinct Nanobody B-cell lineages were tested as periplasmic extracts for their binding to cell surface exposed CXCR7. In this assay, 5-fold dilutions of periplasmic extract were incubated with Hek293 hCXCR7 and Hek293 wt cells. Binding of the Nanobodies was detected using mouse anti-myc (Serotec), followed by anti-mouse IgG-PE (Jackson Immununoresearch).
Note: unit MCF is implicit; provide only the numeric part.

Prompt line: Name the recorded Hek-CXCR7 [MCF] for Nanobody 07C03 with Tag-1 (VHH, periplasmic extract in the screening FACS) VHH: EVQLVESGGGLVQAGESLTLSCAASGRTLSAYIMGWFRQAPGKEREFVAGIWSGGYTHLADSAKGRFSISRDNAKNTVYLQMNGLKPEDTAVYYCAAGLRGRQYSNWGQGTQVTVSS .
Response line: 23400

Prompt line: Do the same for Nanobody 07B11 with Tag-1 (VHH, periplasmic extract in the screening FACS) VHH: EVQLVESGGNLVQAGGSLGLSCAASVSISSIHIMGWYRQAPGKQRDLVATITSGGSTAYADSVKGRFTVSKDNAKNTVYLQMDSLKPEDTSVYYCAAEVRNGVFGKWNHYWGQGTQVTVSS please
Response line: 42900

Prompt line: Do the same for Nanobody 08A10 with Tag-1 (VHH, periplasmic extract in the screening FACS) VHH: EVQLVESGGGLVQAGGSLRLSCAASGSIFSIAAMGWYRQATGKQRELVATITDGGTTTYADSVKGRVTISRDRSANTVYLAMNNLKPDDTAVYYCYAYLRYTSRVPGDNYWGQGTQVTVSS please
Response line: 27400

Prompt line: Do the same for Nanobody 08A05 with Tag-1 (VHH, periplasmic extract in the screening FACS) VHH: EVQLVESGGGLVQAGDSLRLSCAASGLTFSNYDMGWFRQAPGKEREFVGASWWSGGAPYYSDSVKGRFTISRDNAKNTVYLQANSLRPEDTAVYYCAAKRLRSFASGGSYDYWGQGTQVTVSS please
Response line: 18600
